Where do the numbers come from? From PubChem BioAssay (NCATS).

- target_desc: Cytochrome P450 2D6 (Homo sapiens) (UniProt P10635)
- Sequence (P10635 whole entry, looked up): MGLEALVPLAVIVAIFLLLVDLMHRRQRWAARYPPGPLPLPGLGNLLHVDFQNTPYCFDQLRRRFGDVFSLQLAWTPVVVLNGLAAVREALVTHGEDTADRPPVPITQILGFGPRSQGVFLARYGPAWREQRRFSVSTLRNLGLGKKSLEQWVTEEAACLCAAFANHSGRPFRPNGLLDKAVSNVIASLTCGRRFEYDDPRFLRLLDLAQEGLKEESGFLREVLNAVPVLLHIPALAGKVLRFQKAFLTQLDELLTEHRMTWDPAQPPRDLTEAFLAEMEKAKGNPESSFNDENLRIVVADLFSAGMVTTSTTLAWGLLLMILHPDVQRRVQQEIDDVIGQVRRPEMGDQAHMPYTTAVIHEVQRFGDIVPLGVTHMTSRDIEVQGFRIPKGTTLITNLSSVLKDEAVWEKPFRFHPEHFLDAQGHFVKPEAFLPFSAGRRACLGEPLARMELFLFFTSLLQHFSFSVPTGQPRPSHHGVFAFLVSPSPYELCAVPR
- assay_method_text: Cytochrome P450 family 2 subfamily D member 6 (CYP2D6) small molecule antagonists: luciferase biochemical (cell-free) qHTS assay (AID 1645840); also: nearly all actives have a fitted effect of over 55% in size
- protocol_conditions: P450-Glo CYP2D6 enzyme, luciferin luminescence, 1 h; series mostly up to 57.4 µM
Results filed as inconclusive are left out. Calls of active or inactive are those of the source. Calls follow the shape of the dose curve; as a rule, active = well fitted inhibition curve with a large enough effect in the repeat runs; inconclusive = weak or mixed curves; inactive = flat fitted curve, though single readings scatter.
Allowed answers: active, inactive

Challenge: Short answer needed: outcome of this test for CCCCN(CCCC)CC(O)c1cc(Cl)cc2c1-c1ccc(Cl)cc1/C2=C/c1ccc(Cl)cc1 (configuration not stated) ?
Response given: active

Challenge: Short answer needed: outcome of this test for `CS(=O)(=O)c1ccc([C@@H](O)[C@@H](CF)NC(=O)C(Cl)Cl)cc1` ?
Response given: inactive

Challenge: Short answer needed: outcome of this test for `CC[N+](CC)(CC)CCOc1ccc(/C=C/c2ccccc2)cc1` ?
Response given: active

Challenge: Short answer needed: outcome of this test for `[O-][n+]1cccc(CO)c1` ?
Response given: inactive

Challenge: Short answer needed: outcome of this test for `CCN(CC)CCSC(=O)C(c1ccccc1)c1ccccc1` ?
Response given: active

Challenge: Short answer needed: outcome of this test for `C[C@]12C[C@H](O)[C@H]3[C@@H](CCC4=CC(=O)CC[C@@]43C)[C@@H]1CC[C@@H]2C(=O)CO` ?
Response given: inactive

Challenge: Short answer needed: outcome of this test for CN1[C@@H]2CC[C@H]1CC(OC(=O)C(O)c1ccccc1)C2 (some centres not stated) ?
Response given: inactive

Challenge: Short answer needed: outcome of this test for `CC(=O)O[C@@]12CO[C@@H]1C[C@H](O)[C@@]1(C)C(=O)[C@H](O)C3=C(C)[C@@H](OC(=O)[C@H](O)[C@@H](NC(=O)OC(C)(C)C)c4ccccc4)C[C@@](O)([C@@H](OC(=O)c4ccccc4)[C@H]21)C3(C)C` ?
Response given: inactive

Challenge: Short answer needed: outcome of this test for `C[C@@H](O)[C@H](N)C(=O)O` ?
Response given: inactive

Challenge: Short answer needed: outcome of this test for `O=c1cc(CO)occ1O` ?
Response given: inactive

Challenge: Short answer needed: outcome of this test for `CCn1cc(C(=O)O)c(=O)c2cnc(N3CCNCC3)nc21` ?
Response given: inactive

Challenge: Short answer needed: outcome of this test for `Nc1cc(=O)[nH]c(N)n1` ?
Response given: inactive

----------
- System: UISO
- assay_method_text: qHTS assay to identify novel small-molecules to repurpose for Merkel cell carcinoma treatment (AID 1296009); also: nearly all actives have a fitted effect of over 60% in size
- protocol_conditions: MCC and control cell lines, CellTiter-Glo viability, 72 h; series mostly up to 46 µM
Results filed as inconclusive are left out. The source made the active and inactive calls. Calls follow the shape of the dose curve; as a rule, active = well fitted inhibition curve with a large enough effect; inconclusive = small, poorly fitted or top-dose-only effect; inactive = flat fitted curve, though single readings scatter.
Allowed answers: 1 for active, -1 for inactive

Challenge: Short answer needed: outcome of this test for `CCC(=O)Nc1ccc(O)cc1` ?
Response given: -1

Challenge: Short answer needed: outcome of this test for `CC1=C(C/C=C(\C)CCC[C@H](C)CCC[C@H](C)CCCC(C)C)C(=O)c2ccccc2C1=O` ?
Response given: -1

Challenge: Short answer needed: outcome of this test for `CNCCCC1c2ccccc2C=Cc2ccccc21` ?
Response given: -1

Challenge: Short answer needed: outcome of this test for `O=c1cc(CO)occ1O` ?
Response given: -1

Challenge: Short answer needed: outcome of this test for `CCOC(=O)[C@H](CCc1ccccc1)N[C@@H](C)C(=O)N1C(=O)N(C)C[C@H]1C(=O)O` ?
Response given: -1

Challenge: Short answer needed: outcome of this test for `COc1cc(C(=O)N2CCOCC2)cc(OC)c1OC` ?
Response given: -1

Challenge: Short answer needed: outcome of this test for `C[C@H]1O[C@H](O[C@H]2[C@H](O)[C@@H](O)[C@@H](O[C@H]3[C@H](O)[C@@H](O)[C@H](O)O[C@@H]3CO)O[C@@H]2CO)[C@H](O)[C@@H](O)[C@@H]1N[C@H]1C=C(CO)[C@@H](O)[C@H](O)[C@H]1O` ?
Response given: -1

Challenge: Short answer needed: outcome of this test for `Nc1ccc(S(=O)(=O)Nc2ccccc2)cc1` ?
Response given: -1

Challenge: Short answer needed: outcome of this test for CC(CN(C)C)CN1c2ccccc2CCc2ccccc21 (configuration not stated) ?
Response given: -1

Challenge: Short answer needed: outcome of this test for `C=CCn1c(=O)n([C@@H]2O[C@H](CO)[C@@H](O)[C@H]2O)c2nc(N)[nH]c(=O)c21` ?
Response given: -1

Challenge: Short answer needed: outcome of this test for C[C@H](NC(CCc1ccccc1)C(=O)O)C(=O)N1CCC[C@H]1C(=O)O (some centres not stated) ?
Response given: -1

Challenge: Short answer needed: outcome of this test for CC1CC(OC(=O)C(O)c2ccccc2)CC(C)(C)N1C (configuration not stated) ?
Response given: -1

Challenge: Short answer needed: outcome of this test for `O=C(O)COc1nn(Cc2ccccc2)c2ccccc12` ?
Response given: -1

Challenge: Short answer needed: outcome of this test for `CC[C@@]1(c2ccccc2)NC(=O)N(C)C1=O` ?
Response given: -1

Challenge: Short answer needed: outcome of this test for `NC1CCN(c2cccc(Cl)n2)CC1` ?
Response given: -1

Challenge: Short answer needed: outcome of this test for `COc1ccc2cc1Oc1cc3c(cc1OC)CC[N+](C)(C)[C@H]3Cc1ccc(cc1)Oc1c(OC)c(OC)cc3c1[C@@H](C2)[N+](C)(C)CC3` ?
Response given: -1

Challenge: Short answer needed: outcome of this test for `O=C1O[C@H](CO)[C@@H](O)[C@H](O)[C@H]1O` ?
Response given: -1

Challenge: Short answer needed: outcome of this test for `COc1ccc(S(=O)(=O)Nc2nnc(CC(C)C)s2)cc1` ?
Response given: -1

Challenge: Short answer needed: outcome of this test for `CCCCN1CCCC[C@H]1C(=O)Nc1c(C)cccc1C` ?
Response given: -1

Challenge: Short answer needed: outcome of this test for CN1CCN(C2Cc3ccccc3Sc3ccc(Cl)cc32)CC1 (configuration not stated) ?
Response given: 1

Challenge: Short answer needed: outcome of this test for `CCCCN(CCCC)CCCOC(=O)c1ccc(N)cc1` ?
Response given: -1

Challenge: Short answer needed: outcome of this test for `C[C@@H]1CN(c2c(F)c(F)c3c(=O)c(C(=O)O)cn(C4CC4)c3c2F)C[C@H](C)N1` ?
Response given: -1

----------
- assay_method_text: qHTS for differential inhibitors of proliferation of Plasmodium falciparum line HB3 (AID 1886);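 also: parasites grown with compound for 72 h before SYBR Green readout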
- protocol_conditions: Plasmodium falciparum HB3 proliferation inhibition; series mostly up to 28.7 µM
Inconclusive results are not listed. The source made the active and inactive calls. Calls come from the whole dose curve; as a rule, active = well fitted curve in the direction sought with a large enough effect; inconclusive = small, poorly fitted or top-dose-only effect, or another doubt; inactive = no such curve, though single readings can be large or run the other way.
Allowed answers: TRUE (active), FALSE (inactive)

Challenge: Short answer needed: outcome of this test for `NC1CCN(c2cccc(Cl)n2)CC1` ?
Response given: FALSE

Challenge: Short answer needed: outcome of this test for `NC(=O)c1ncn([C@@H]2O[C@H](CO)[C@@H](O)[C@H]2O)n1` ?
Response given: FALSE

Challenge: Short answer needed: outcome of this test for `N=c1c[n+](N2CCOCC2)[n-]o1` ?
Response given: FALSE

Challenge: Short answer needed: outcome of this test for CSc1ccc2c(c1)C(N1CCN(C)CC1)Cc1ccccc1S2 (stereo unspecified) ?
Response given: TRUE

Challenge: Short answer needed: outcome of this test for CSc1ccc2c(c1)N(CCC1CCCCN1C)c1ccccc1S2 (stereo unspecified) ?
Response given: TRUE

Challenge: Short answer needed: outcome of this test for CC(C)(C)c1onc(OCP(=O)(O)O)c1CC(N)C(=O)O (stereo unspecified) ?
Response given: FALSE

----------
- Tested on: CP247
- assay_method_text: qHTS profiling for inhibitors of Plasmodium falciparum proliferation (AID 504749); also: nearly all actives have a fitted effect of over 60% in size
- protocol_conditions: P. falciparum in erythrocytes, SYBR Green DNA, 72 h; series mostly up to 28.7 µM
Inconclusive results are not listed. The source made the active and inactive calls. Calls come from the whole dose curve; as a rule, active = well fitted inhibition curve with a large enough effect; inconclusive = small, poorly fitted or top-dose-only effect; inactive = flat fitted curve, though single readings scatter.
Allowed answers: active, inactive

Challenge: Short answer needed: outcome of this test for `NS(=O)(=O)c1cc2c(cc1Cl)NC(CSCc1ccccc1)=NS2(=O)=O` ?
Response given: inactive

Challenge: Short answer needed: outcome of this test for `CC(=O)CCC(=O)O` ?
Response given: inactive

Challenge: Short answer needed: outcome of this test for `Cc1cc(O)cc2c1O[C@](C)(CCC[C@H](C)CCC[C@H](C)CCCC(C)C)CC2` ?
Response given: inactive

Challenge: Short answer needed: outcome of this test for `OCCN1CCN(CCCN2c3ccccc3Sc3ccc(Cl)cc32)CC1` ?
Response given: active

Challenge: Short answer needed: outcome of this test for `COc1ccc2c(c1)C(=O)N(CCc1ccc(S(=O)(=O)NC(=O)NC3CCCCC3)cc1)C(=O)C2(C)C` ?
Response given: inactive

----------
- target_desc: Endonuclease 4 (Escherichia coli (strain K12))
- assay_method_text: Counterscreen for APE1 Inhibitors: qHTS Validation Assay for Inhibitors of Endonuclease IV (AID 1708)
- protocol_conditions: E. coli endonuclease IV, DNA cleavage fluorescence; series mostly up to 57.1 µM
Results filed as inconclusive are left out. Activity calls are given as the source filed them. Calls follow the shape of the dose curve; as a rule, active = well fitted inhibition curve with a large enough effect; inconclusive = small, poorly fitted or top-dose-only effect; inactive = no such curve, though single readings can be large or run the other way.
value_type: outcome

> print(dat)
                                   compound  endpoint.value
1  CC(C(O)c1ccc(O)cc1)N1CCC(Cc2ccccc2)CC1 (stereo unspecified)        inactive
2  CNCC(O)c1ccc(O)c(O)c1 (stereo unspecified)        inactive
3         CCN(CC)CCOC(=O)C1(C2CCCCC2)CCCCC1        inactive
4  CN(C)CCOC(C)(c1ccccc1)c1ccccn1 (stereo unspecified)        inactive

Challenge: Provide outcome value for the following compound: `COc1ccc(Cl)cc1C(=O)NCCc1ccc(S(=O)(=O)NC(=O)NC2CCCCC2)cc1`
Response given: inactive

Challenge: Provide outcome value for the following compound: `CC1=C(/C=C/C(C)=C/C=C/C(C)=C/C(=O)O)C(C)(C)CCC1`
Response given: inactive
